- Test system: Streptococcus pneumoniae 1/1
- protocol details: MIC by broth microdilution (CAMHB + 5% horse serum, NCCLS)
- Type: cell-based
- cond: code D: Streptococcus pneumoniae 1/1
recorded endpoint: MIC

Field: example entries. Status: answers known.
- structure smiles string: "CC[C@H]1OC(=O)[C@H](C)[C@@H](O[C@H]2C[C@@](C)(OC)[C@@H](O)[C@H](C)O2)[C@H](C)[C@@H](O[C@@H]2O[C@H](C)C[C@H](N(C)C)[C@H]2O)[C@](C)(OC)C[C@@H](C)C(=O)[C@H](C)[C@H]2[C@H](SCCn3ccc(-c4cccnc4)n3)C(=O)O[C@@]21C"
  MIC: "<=0.06 μg/ml"
- structure smiles string: "CC[C@H]1OC(=O)[C@H](C)[C@@H](O[C@H]2C[C@@](C)(OC)[C@@H](O)[C@H](C)O2)[C@H](C)[C@@H](O[C@@H]2O[C@H](C)C[C@H](N(C)C)[C@H]2O)[C@](C)(OC)C[C@@H](C)C(=O)[C@H](C)[C@H]2[C@H](SCC(=O)Nc3cccc4cccnc34)C(=O)O[C@@]21C"
  MIC: "<=0.06 μg/ml"
- structure smiles string: "CC[C@H]1OC(=O)[C@H](C)[C@@H](O[C@H]2C[C@@](C)(OC)[C@@H](O)[C@H](C)O2)[C@H](C)[C@@H](O[C@@H]2O[C@H](C)C[C@H](N(C)C)[C@H]2O)[C@](C)(OC)C[C@@H](C)C(=O)[C@H](C)[C@H]2[C@H](SCC(=O)c3ccc(OC)cc3OC)C(=O)O[C@@]21C"
  MIC: "<=0.06 μg/ml"
- structure smiles string: "CC[C@H]1OC(=O)[C@H](C)[C@@H](O[C@H]2C[C@@](C)(OC)[C@@H](O)[C@H](C)O2)[C@H](C)[C@@H](O[C@@H]2O[C@H](C)C[C@H](N(C)C)[C@H]2O)[C@](C)(OC)C[C@@H](C)C(=O)[C@H](C)[C@H]2[C@H](SCC(=O)Nc3ccc(C(=O)OC)c(OC)c3)C(=O)O[C@@]21C"
  MIC: "<=0.06 μg/ml"
- structure smiles string: "CC[C@H]1OC(=O)[C@H](C)[C@@H](O[C@H]2C[C@@](C)(OC)[C@@H](O)[C@H](C)O2)[C@H](C)[C@@H](O[C@@H]2O[C@H](C)C[C@H](N(C)C)[C@H]2O)[C@](C)(OC)C[C@@H](C)C(=O)[C@H](C)[C@H]2[C@H](S(=O)(=O)CCn3cnc4c(N)ncnc43)C(=O)O[C@@]21C"
  MIC: "2 µg/mL"
- structure smiles string: "CC[C@H]1OC(=O)[C@H](C)[C@@H](O[C@H]2C[C@@](C)(OC)[C@@H](O)[C@H](C)O2)[C@H](C)[C@@H](O[C@@H]2O[C@H](C)C[C@H](N(C)C)[C@H]2O)[C@](C)(OC)C[C@@H](C)C(=O)[C@H](C)[C@H]2[C@H](SCCn3cnc4c(N)nc(N)nc43)C(=O)O[C@@]21C"
  MIC: "<=0.06 μg/ml"
- structure smiles string: "CC[C@H]1OC(=O)[C@H](C)[C@@H](O[C@H]2C[C@@](C)(OC)[C@@H](O)[C@H](C)O2)[C@H](C)[C@@H](O[C@@H]2O[C@H](C)C[C@H](N(C)C)[C@H]2O)[C@](C)(OC)C[C@@H](C)C(=O)[C@H](C)[C@H]2[C@H](SCC(=O)NCc3ccccn3)C(=O)O[C@@]21C"
  MIC: "<=0.06 μg/ml"
- structure smiles string: "CC[C@H]1OC(=O)[C@H](C)[C@@H](O[C@H]2C[C@@](C)(OC)[C@@H](O)[C@H](C)O2)[C@H](C)[C@@H](O[C@@H]2O[C@H](C)C[C@H](N(C)C)[C@H]2O)[C@](C)(OC)C[C@@H](C)C(=O)[C@H](C)[C@H]2[C@H](SCC(=O)c3ccc(N(CC)CC)cc3)C(=O)O[C@@]21C"
  MIC: "0.125 µg/mL"
- structure smiles string: "CC[C@H]1OC(=O)[C@H](C)[C@@H](O[C@H]2C[C@@](C)(OC)[C@@H](O)[C@H](C)O2)[C@H](C)[C@@H](O[C@@H]2O[C@H](C)C[C@H](N(C)C)[C@H]2O)[C@](C)(OC)C[C@@H](C)C(=O)[C@H](C)[C@H]2[C@H](SCC(=O)Nc3ccc(C)c(C)c3)C(=O)O[C@@]21C"
  MIC: "<=0.06 μg/ml"
- structure smiles string: "CC[C@H]1OC(=O)[C@H](C)[C@@H](O[C@H]2C[C@@](C)(OC)[C@@H](O)[C@H](C)O2)[C@H](C)[C@@H](O[C@@H]2O[C@H](C)C[C@H](N(C)C)[C@H]2O)[C@](C)(OC)C[C@@H](C)C(=O)[C@H](C)[C@H]2[C@H](SCCOCn3cnc4cccnc43)C(=O)O[C@@]21C"
  MIC: "<=0.06 μg/ml"

Item `CC[C@H]1OC(=O)[C@H](C)[C@@H](O[C@H]2C[C@@](C)(OC)[C@@H](O)[C@H](C)O2)[C@H](C)[C@@H](O[C@@H]2O[C@H](C)C[C@H](N(C)C)[C@H]2O)[C@](C)(OC)C[C@@H](C)C(=O)[C@H](C)[C@H]2[C@H](SCCn3cncn3)C(=O)O[C@@]21C` : provide MIC
<=0.06 μg/ml

Item `CC[C@H]1OC(=O)[C@H](C)[C@@H](O[C@H]2C[C@@](C)(OC)[C@@H](O)[C@H](C)O2)[C@H](C)[C@@H](O[C@@H]2O[C@H](C)C[C@H](N(C)C)[C@H]2O)[C@](C)(OC)C[C@@H](C)C(=O)[C@H](C)[C@H]2[C@H](SCCn3cnc4ccccc43)C(=O)O[C@@]21C` : provide MIC
<=0.06 μg/ml

Item `CC[C@H]1OC(=O)[C@H](C)[C@@H](O[C@H]2C[C@@](C)(OC)[C@@H](O)[C@H](C)O2)[C@H](C)[C@@H](O[C@@H]2O[C@H](C)C[C@H](N(C)C)[C@H]2O)[C@](C)(OC)C[C@@H](C)C(=O)[C@H](C)[C@H]2[C@H](SCC(=O)c3ccc4c(c3)OCO4)C(=O)O[C@@]21C` : provide MIC
<=0.06 μg/ml

###

- System: Streptococcus pneumoniae 1/1
- protocol details: MIC by broth microdilution (CAMHB + 5% horse serum, NCCLS)
- Format: cell-based
- cond: code D: Streptococcus pneumoniae 1/1

- compound: "CC[C@H]1OC(=O)[C@H](C)[C@@H](O[C@H]2C[C@@](C)(OC)[C@@H](O)[C@H](C)O2)[C@H](C)[C@@H](O[C@@H]2O[C@H](C)C[C@H](N(C)C)[C@H]2O)[C@](C)(OC)C[C@@H](C)C(=O)[C@H](C)[C@H]2[C@H](SCC(=O)Nc3ccc(F)cc3F)C(=O)O[C@@]21C [Example 23]"
  tgt: "Streptococcus pneumoniae 1/1"
  MIC: "<=0.06 μg/ml"
- compound: "CC[C@H]1OC(=O)[C@H](C)[C@@H](O[C@H]2C[C@@](C)(OC)[C@@H](O)[C@H](C)O2)[C@H](C)[C@@H](O[C@@H]2O[C@H](C)C[C@H](N(C)C)[C@H]2O)[C@](C)(OC)C[C@@H](C)C(=O)[C@H](C)[C@H]2[C@H](SCC(=O)c3csc4ccccc34)C(=O)O[C@@]21C [Example 28]"
  tgt: "Streptococcus pneumoniae 1/1"
  MIC: "0.25 µg/mL"
- compound: "CC[C@H]1OC(=O)[C@H](C)[C@@H](O[C@H]2C[C@@](C)(OC)[C@@H](O)[C@H](C)O2)[C@H](C)[C@@H](O[C@@H]2O[C@H](C)C[C@H](N(C)C)[C@H]2O)[C@](C)(OC)C[C@@H](C)C(=O)[C@H](C)[C@H]2[C@H](SCCCn3cnc4cccnc43)C(=O)O[C@@]21C [Example 12]"
  tgt: "Streptococcus pneumoniae 1/1"
  MIC: "<=0.06 μg/ml"

###

- Tested on: Streptococcus pneumoniae Tupelo
- protocol details: MIC by broth microdilution (CAMHB + 5% horse serum, NCCLS)
- Type: cell-based
- cond: code F: Streptococcus pneumoniae Tupelo; read-out: MIC
recorded endpoint: MIC (µg/mL)
# number only, unit µg/mL dropped from output

Field: example entries. Status: answers known.
- compound: "CC[C@H]1OC(=O)[C@H](C)[C@@H](O[C@H]2C[C@@](C)(OC)[C@@H](O)[C@H](C)O2)[C@H](C)[C@@H](O[C@@H]2O[C@H](C)C[C@H](N(C)C)[C@H]2O)[C@](C)(OC)C[C@@H](C)C(=O)[C@H](C)[C@H]2[C@H](SCCn3cnc4c(N)ncnc43)C(=O)O[C@@]21C"
  numeric readout: 0.5
- compound: "CC[C@H]1OC(=O)[C@H](C)[C@@H](O[C@H]2C[C@@](C)(OC)[C@@H](O)[C@H](C)O2)[C@H](C)[C@@H](O[C@@H]2O[C@H](C)C[C@H](N(C)C)[C@H]2O)[C@](C)(OC)C[C@@H](C)C(=O)[C@H](C)[C@H]2[C@H](SCCn3cnc4cccnc43)C(=O)O[C@@]21C"
  numeric readout: 0.5
- compound: "CC[C@H]1OC(=O)[C@H](C)[C@@H](O[C@H]2C[C@@](C)(OC)[C@@H](O)[C@H](C)O2)[C@H](C)[C@@H](O[C@@H]2O[C@H](C)C[C@H](N(C)C)[C@H]2O)[C@](C)(O)C[C@@H](C)C(=O)[C@H](C)[C@@H](O)[C@]1(C)O [Erythromycin, reference compound]"
  numeric readout: 8

Item CC[C@H]1OC(=O)[C@H](C)C(=O)[C@H](C)[C@@H](O[C@@H]2O[C@H](C)C[C@H](N(C)C)[C@H]2O)[C@](C)(OC)C[C@@H](C)C(=O)[C@H](C)[C@H]2N(CCCCn3cnc(-c4cccnc4)c3)C(=O)O[C@]12C [Telithromycin, reference compound] : provide MIC
0.5
